ASSAY: PK parameters in preclinical species
Assay type: in vivo
CONDITIONS USED: in vivo, iv; Mouse; single dose 1 mg/kg i.v. or 3 mg/kg p.o.
clearance values, listed per item
ENDPOINT LABEL: clearance (mL/min/kg)

[
  {
    "COMPOUND": "COc1cc2c(cc1OC(C)C)[C@H](c1ccc(Cl)cc1)N(c1ccc(N(C)C[C@H]3CC[C@H](N4CCNC(=O)C4)CC3)cc1)C(=O)C2 [NVP-CFC218]",
    "MEASURED": 9
  },
  {
    "COMPOUND": "COc1cc2c(cc1OC(C)C)[C@H](c1ccc(Cl)cc1)N(c1ccc(N(C)C[C@H]3CC[C@H](N4CCN(C)C(=O)C4)CC3)cc1)C(=O)C2 [NVP-CGM097]",
    "MEASURED": 5
  }
]
